system: Escherichia coli TOP10; test: shrunken log2 fold change of peptide-encoding DNA abundance (4.5 h post-induction vs induction); higher = less antimicrobial activity (less host growth inhibition); settings: time post-induction: 4.5 h; library: site-saturation at positions 5, 18, 19, 20
# cutoff -0.06 applies to shrunken log2 fold change; >= gives criterion met, < gives criterion not met

Request: Given RRIRWRPPRLPRPRPRPAYCPRP , state whether its shrunken log2 fold change is at least -0.06.
Result: criterion not met

Request: Check this sequence for shrunken log2 fold change at or above -0.06: RRIRNRPPRLPRPRPRPRGCPRP
Result: criterion met

Request: Is the recorded value of shrunken log2 fold change equal to or greater than -0.06 for this sequence? RRIRNRPPRLPRPRPRPDMPPRP
Result: criterion not met

Request: Could you verify whether the entry RRIRCRPPRLPRPRPRPMEQPRP shows shrunken log2 fold change of no less than -0.06?
Result: criterion met

Request: Is the recorded value of shrunken log2 fold change equal to or greater than -0.06 for this sequence? RRIRCRPPRLPRPRPRPDSEPRP
Result: criterion met

Request: Please indicate if the recorded shrunken log2 fold change for RRIRCRPPRLPRPRPRPVQDPRP meets or exceeds -0.06.
Result: criterion met

Request: Could you tell me if the measured shrunken log2 fold change of RRIRWRPPRLPRPRPRPNPLPRP reaches -0.06 or more?
Result: criterion met

Request: Tell me whether shrunken log2 fold change is at least -0.06 here: RRIRIRPPRLPRPRPRPRTHPRP
Result: criterion not met

Request: Check the entry RRIRFRPPRLPRPRPRPYCMPRP : does shrunken log2 fold change equal or exceed -0.06?
Result: criterion not met

Request: I'd appreciate it if you could say whether RRIRGRPPRLPRPRPRPTTGPRP has shrunken log2 fold change at least equal to -0.06.
Result: criterion met

Request: In plain terms: is recorded shrunken log2 fold change at least -0.06 for RRIRKRPPRLPRPRPRPLKPPRP ?
Result: criterion met

Request: Assess whether reported shrunken log2 fold change for RRIRVRPPRLPRPRPRPSLQPRP sits at -0.06 or higher.
Result: criterion not met

Request: Item RRIRTRPPRLPRPRPRPWAEPRP with shrunken log2 fold change of -0.06 or above?
Result: criterion not met

Request: Could you verify whether the entry RRIRWRPPRLPRPRPRPVHNPRP shows shrunken log2 fold change of no less than -0.06?
Result: criterion not met

Request: Say whether RRIRRRPPRLPRPRPRPEMCPRP shows shrunken log2 fold change of -0.06 or more.
Result: criterion met

###

system: Escherichia coli TOP10; experiment: shrunken log2 fold change of peptide-encoding DNA abundance (4.5 h post-induction vs induction); higher = less antimicrobial activity (less host growth inhibition); conditions: time post-induction: 4.5 h; library: site-saturation at positions 5, 18, 19, 20;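 also: peptides expressed intracellularly from a pBAD plasmid library in pooled LB shake-flask culture, induced with 0.3% L-arabinose, DNA abundance read by NGS, three biological replicates, DESeq2 with apeglm shrinkage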
Metric: shrunken log2 fold change
// print number alone

Request: What does the data say about its shrunken log2 fold change? Entry: RRIRCRPPRLPRPRPRPVRQPRP
Result: 0.126

Request: Please look up its shrunken log2 fold change: RRIRQRPPRLPRPRPRPNQLPRP
Result: -0.499

Request: I have this sequence here, RRIRDRPPRLPRPRPRPWRAPRP , and I need its recorded shrunken log2 fold change.
Result: 0.132

Request: Which shrunken log2 fold change value is on record for RRIRHRPPRLPRPRPRPYFGPRP ?
Result: -0.131

Request: // query shrunken log2 fold change value for entry RRIRDRPPRLPRPRPRPYSDPRP
Result: 0.0396

Request: shrunken log2 fold change lookup needed for RRIRTRPPRLPRPRPRPGRFPRP , thanks.
Result: -0.0311

Request: Which measured shrunken log2 fold change value corresponds to RRIRDRPPRLPRPRPRPSGAPRP ?
Result: 0.0348

Request: Recorded shrunken log2 fold change of RRIRQRPPRLPRPRPRPLPDPRP , please.
Result: 0.0466

Request: Which shrunken log2 fold change reading was recorded for the sequence RRIRGRPPRLPRPRPRPRTGPRP ?
Result: 0.617

Request: Data request, read-out shrunken log2 fold change, for RRIRERPPRLPRPRPRPAYSPRP
Result: -0.0646

Request: Name the recorded shrunken log2 fold change for RRIRYRPPRLPRPRPRPTIHPRP .
Result: -1.2

Request: Return reported shrunken log2 fold change; argument: RRIRMRPPRLPRPRPRPSYYPRP
Result: -0.531

Request: I would be grateful if you could share the reported shrunken log2 fold change for RRIRQRPPRLPRPRPRPTGSPRP .
Result: -0.0708

Request: Request the reported shrunken log2 fold change associated with RRIRTRPPRLPRPRPRPMVQPRP
Result: 0.0197

Request: # query: shrunken log2 fold change of entry RRIRWRPPRLPRPRPRPQWVPRP
Result: 0.0902
